- TEST_SYSTEM: dopamine transporter (UniProt P23977)
- Assay type: binding
- PARTICULARS: read-out: DA IC50 for inhibition of radioligand binding; DA=[3H]WIN 35,428
Structures can show the parent of a compound that is named as a salt.
Listed here: items and their measured pIC50.
# log scale: pIC50 equals minus log10 of the concentration in mol/L

CCc1ccc(C2CC3CCC(N3)C2C(=O)OC)cc1I (centres unmarked) [RTI-4229-353] = 6.48
CN1C2CCC1C(C(=O)Oc1ccccc1)C(c1ccc(Cl)cc1)C2 (centres unmarked) [RTI-4229-122] = 8.82
CN1[C@H]2CC[C@@H]1[C@@H](c1ncc(-c3ccccc3)s1)[C@@H](c1ccc(Cl)cc1)C2 [RTI-4229-219, Hydrochloride] = 8.24

Asked: Which pIC50 value is on record for COC(=O)C1C(c2ccc(I)cc2)CC2CCC1N2C (centres unmarked) [RTI-4229-352] ?
Given back: 8.54

Asked: For CC(C)c1cc([C@@H]2C3CCC(C[C@@H]2c2ccc(Cl)cc2)N3C)on1 (some centres unmarked) [RTI-4229-335] then?
Given back: 8.92

---

- TEST_SYSTEM: serotonin transporter (Rattus norvegicus, UniProt P31652)
- Construct: from tissue
- Sequence (P31652 whole entry): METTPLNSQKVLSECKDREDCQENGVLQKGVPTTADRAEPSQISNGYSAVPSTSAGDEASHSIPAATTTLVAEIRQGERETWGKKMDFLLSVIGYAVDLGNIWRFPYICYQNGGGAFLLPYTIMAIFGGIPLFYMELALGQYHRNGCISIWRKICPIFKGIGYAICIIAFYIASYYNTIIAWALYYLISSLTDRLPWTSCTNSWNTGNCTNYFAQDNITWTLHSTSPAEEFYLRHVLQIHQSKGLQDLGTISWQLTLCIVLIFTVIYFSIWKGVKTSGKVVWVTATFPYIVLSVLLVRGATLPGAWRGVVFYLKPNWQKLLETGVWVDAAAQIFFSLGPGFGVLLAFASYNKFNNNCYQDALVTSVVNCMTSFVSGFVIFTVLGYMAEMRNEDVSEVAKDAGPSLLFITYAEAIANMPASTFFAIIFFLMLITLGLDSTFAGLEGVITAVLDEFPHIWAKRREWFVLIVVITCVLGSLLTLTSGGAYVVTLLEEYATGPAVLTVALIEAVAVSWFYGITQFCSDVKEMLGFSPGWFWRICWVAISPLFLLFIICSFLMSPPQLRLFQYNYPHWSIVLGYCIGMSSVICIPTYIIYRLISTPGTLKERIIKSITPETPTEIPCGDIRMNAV
- ASSAY_REMARKS: Inhibition of [3H]paroxetine radioligand binding at the serotonin transporter
- PARTICULARS: IC50 5-HT [3H] Paroxetine, Table III
READOUT_TYPE: IC50 (nM)
Value expressed in nM; do not type the unit.

Asked: What value of IC50 has been reported for the following compound? COC(=O)C1C2CCC(CC1c1ccc(C)c(I)c1)N2 (stereo not shown) [RTI-4229-279]
Given back: 1.06

---

- TEST_SYSTEM: serotonin transporter (Rattus norvegicus, UniProt P31652)
- Construct: from tissue
- ASSAY_REMARKS: Inhibition of [3H]paroxetine radioligand binding at the serotonin transporter
- PARTICULARS: IC50 5-HT [3H]-paroxatine, Table II
Counter-ions that a name gives are not always drawn.
READOUT_TYPE: pIC50
Formally, pIC50 is defined as -log10 of the concentration c, with c in mol/L.

Take a look at these entries with their results.
Cc1ccc([C@H]2C[C@@H]3CC[C@H]([C@H]2c2nnc(-c4ccccc4)o2)N3C)cc1 [RTI-4229-195, Hydrochloride] = 4.63
Cc1cc([C@H]2[C@@H](c3ccc(I)cc3)C[C@@H]3CC[C@H]2N3C)on1 [RTI-4229-180, Hydrochloride] = 7.44
CN1[C@H]2CC[C@@H]1[C@@H](c1cc(-c3ccccc3)no1)[C@@H](c1ccc(Cl)cc1)C2 [RTI-4229-177, Hydrochloride] = 5.62

Asked: What value of measured pIC50 is listed for CN1C2CCC1C(c1nnc(-c3ccccc3)s1)C(c1ccc(Cl)cc1)C2 (stereo not shown) [RTI-4229-200, Hydrochloride] ?
Given back: 4.73

Asked: Again, but for "CN1[C@H]2CC[C@@H]1[C@@H](c1nnn[nH]1)[C@@H](c1ccc(Cl)cc1)C2"
Given back: 5.26

Asked: Lookup CN1[C@H]2CC[C@@H]1[C@@H](c1cc(-c3ccccc3)no1)[C@@H](c1ccc(I)cc1)C2 [RTI-4229-181, Hydrochloride]
Given back: 7.00

Asked: Would you mind doing CN1[C@H]2CC[C@@H]1[C@@H](c1nc3ccccc3s1)[C@@H](c1ccc(Cl)cc1)C2 [RTI-4229-202, Hydrochloride] as well?
Given back: 5.95
